Test system: Sheath blight (Rhizoctonia solani)
Test Summary: Preventive effect by application against Sheath blight (foliar spray)
Format: in vivo
Conditions: 10 ppm active ingredient, foliar spray before inoculation, ten-leave-stage rice
Attribute Measured: Preventive index

Consider the compound O=C(Nc1ccccc1)N(Cc1ccc(Cl)cc1)C1CCCC1 [Compound 6] and give its recorded Preventive index.
3 (Preventive value 60 to 84%)

Consider the compound Cc1ccccc1C(=O)Nc1cccc(OC(C)C)c1 [Compound 2, 3′-isopropoxy-2-methylbenzanilide] and give its recorded Preventive index.
2

Consider the compound Cc1nc(C(F)(F)F)c(C(=O)Nc2c(Br)cc(OC(F)(F)F)cc2Br)s1 [Compound 3] and give its recorded Preventive index.
3 (Preventive value 60 to 84%)

Consider the compound Cc1c(Cl)cc(-c2ccc(=O)[nH]n2)cc1Cl [Compound 7] and give its recorded Preventive index.
2

Consider the compound OCC1=C[C@H](N[C@H]2C[C@H](CO)[C@@H](O[C@@H]3O[C@H](CO)[C@@H](O)[C@H](O)[C@H]3O)[C@H](O)[C@H]2O)[C@H](O)[C@@H](O)[C@@H]1O [Compound 5, validamycin] and give its recorded Preventive index.
3 (Preventive value 60 to 84%)

Consider the compound CO/C=C(/C(=O)OC)c1ccccc1Oc1cc(Oc2ccccc2C#N)ncn1 [Compound 13] and give its recorded Preventive index.
3 (Preventive value 60 to 84%)

Consider the compound CC(C)Oc1cccc(NC(=O)c2ccccc2C(F)(F)F)c1 [Compound 1] and give its recorded Preventive index.
3 (Preventive value 60 to 84%)
